# System: Saccharomyces cerevisiae
# measurementNotes: Inhibition of Saccharomyces cerevisiae alpha-glucosidase at 200 ug/mL using p-nitrophenyl alpha-D-glucoside as substrate by colorimetric assay
attributeMeasured: inhibition (%)

[
  {
    "molSmiles": "O=C1C[C@@H](c2ccccc2)Oc2cc(O)cc(O)c21",
    "reading": 97.7
  },
  {
    "molSmiles": "CC(=O)O[C@H]1C(=O)C=COC=C1COC(=O)c1ccccc1",
    "reading": 98.2
  },
  {
    "molSmiles": "COc1cc(O)c2c(=O)cc(-c3ccccc3)oc2c1",
    "reading": 90.9
  },
  {
    "molSmiles": "CC(=O)OC/C=C\\C=C(/COC(C)=O)COC(=O)c1ccccc1",
    "reading": 99.1
  },
  {
    "molSmiles": "O=C1C[C@@H](c2ccccc2)Oc2c(Cc3ccccc3O)c(O)c(Cc3ccccc3O)c(O)c21",
    "reading": 99.1
  },
  {
    "molSmiles": "O=c1cc(-c2ccccc2)oc2c(Cc3cc(O)ccc3O)c(O)cc(O)c12",
    "reading": 95.8
  },
  {
    "molSmiles": "CC(=O)O[C@@H]1C=COC=C(CO)C1=O",
    "reading": 92.1
  },
  {
    "molSmiles": "O=C(OC[C@@]1(O)C(=O)C=C[C@@H](OC(=O)c2ccccc2)[C@@H]1O)c1ccccc1",
    "reading": 98.7
  },
  {
    "molSmiles": "O=C(OCc1ccccc1O)c1ccccc1",
    "reading": 97.5
  },
  {
    "molSmiles": "CC(=O)OC/C=C\\C=C(/CO)COC(=O)c1ccccc1",
    "reading": 94
  },
  {
    "molSmiles": "O=c1cc(-c2ccccc2)oc2c(Cc3cccc(O)c3O)c(O)cc(O)c12",
    "reading": 96.1
  },
  {
    "molSmiles": "O=C1C[C@@H](c2ccccc2)Oc2cc(O)c(Cc3ccccc3O)c(O)c21",
    "reading": 93.2
  },
  {
    "molSmiles": "CC(=O)O[C@@H]1C=COC=C(COC(=O)c2ccccc2)C1=O",
    "reading": 95.5
  },
  {
    "molSmiles": "O=c1cc(-c2ccccc2)oc2cc(O)cc(O)c12",
    "reading": 95.4
  }
]

###

# measurementNotes: Inhibition of Saccharomyces cerevisiae alpha-glucosidase using p-nitrophenyl alpha-D-glucoside as substrate by colorimetric assay
pIC50: −log10 of the molar value.
// pIC50 lookup, one value per entry
attributeMeasured: pIC50

[
  {
    "molecule": "CC(=O)OC/C=C\\C=C(/CO)COC(=O)c1ccccc1",
    "attributeMeasured": "pIC50",
    "reading": 3.86
  },
  {
    "molecule": "COc1cc(O)c2c(=O)cc(-c3ccccc3)oc2c1",
    "attributeMeasured": "pIC50",
    "reading": 3.80
  },
  {
    "molecule": "CC(=O)O[C@@H]1C=COC=C(CO)C1=O",
    "attributeMeasured": "pIC50",
    "reading": 5.31
  },
  {
    "molecule": "C[C@H]1O[C@H](O[C@H]2[C@H](O)[C@@H](O)[C@@H](O[C@H]3[C@H](O)[C@@H](O)C(O)O[C@@H]3CO)O[C@@H]2CO)[C@H](O)[C@@H](O)[C@@H]1N[C@H]1C=C(CO)[C@@H](O)[C@H](O)[C@H]1O (stereo not given in full)",
    "attributeMeasured": "pIC50",
    "reading": 3.77
  },
  {
    "molecule": "CC(=O)O[C@@H]1C=COC=C(COC(=O)c2ccccc2)C1=O",
    "attributeMeasured": "pIC50",
    "reading": 5.44
  },
  {
    "molecule": "O=C(OC[C@@]1(O)C(=O)C=C[C@@H](OC(=O)c2ccccc2)[C@@H]1O)c1ccccc1",
    "attributeMeasured": "pIC50",
    "reading": 4.14
  },
  {
    "molecule": "O=C1C[C@@H](c2ccccc2)Oc2cc(O)c(Cc3ccccc3O)c(O)c21",
    "attributeMeasured": "pIC50",
    "reading": 5.54
  },
  {
    "molecule": "O=c1cc(-c2ccccc2)oc2c(Cc3cccc(O)c3O)c(O)cc(O)c12",
    "attributeMeasured": "pIC50",
    "reading": 6.05
  },
  {
    "molecule": "O=C1C[C@@H](c2ccccc2)Oc2c(Cc3ccccc3O)c(O)c(Cc3ccccc3O)c(O)c21",
    "attributeMeasured": "pIC50",
    "reading": 6.70
  },
  {
    "molecule": "CC(=O)OC/C=C\\C=C(/COC(C)=O)COC(=O)c1ccccc1",
    "attributeMeasured": "pIC50",
    "reading": 4.39
  },
  {
    "molecule": "O=c1cc(-c2ccccc2)oc2cc(O)cc(O)c12",
    "attributeMeasured": "pIC50",
    "reading": 5.31
  },
  {
    "molecule": "O=C1C[C@@H](c2ccccc2)Oc2cc(O)cc(O)c21",
    "attributeMeasured": "pIC50",
    "reading": 5.37
  },
  {
    "molecule": "O=C(OCc1ccccc1O)c1ccccc1",
    "attributeMeasured": "pIC50",
    "reading": 5.37
  },
  {
    "molecule": "O=c1cc(-c2ccccc2)oc2c(Cc3cc(O)ccc3O)c(O)cc(O)c12",
    "attributeMeasured": "pIC50",
    "reading": 6.05
  },
  {
    "molecule": "CC(=O)O[C@H]1C(=O)C=COC=C1COC(=O)c1ccccc1",
    "attributeMeasured": "pIC50",
    "reading": 5.51
  }
]
